- testedOn: T1, MDC1^27–138 (MDC1 FHA domain, residues 27–138) (UniProt Q14676 27-138)
- T1 sequence (looked up): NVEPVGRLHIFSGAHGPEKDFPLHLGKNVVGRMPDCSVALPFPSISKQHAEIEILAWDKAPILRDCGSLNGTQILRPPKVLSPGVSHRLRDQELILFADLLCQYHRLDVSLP
- methodNotes: ITC
Non-standard residues stand in square brackets, D forms with d. No end group written: not given here. pT = C[C@@H](OP(=O)(O)O)[C@H](N)C(=O)O
observationType: Kd (µM)
Answers are plain numbers, in µM.

Data request, read-out Kd, for MED[pT]QAID [phosphopeptide MED(pT)QAID (pT4-8P)]
40
